system: Histamine H3 receptor (Cavia porcellus, UniProt Q9JI35)
Sequence (Q9JI35 whole entry): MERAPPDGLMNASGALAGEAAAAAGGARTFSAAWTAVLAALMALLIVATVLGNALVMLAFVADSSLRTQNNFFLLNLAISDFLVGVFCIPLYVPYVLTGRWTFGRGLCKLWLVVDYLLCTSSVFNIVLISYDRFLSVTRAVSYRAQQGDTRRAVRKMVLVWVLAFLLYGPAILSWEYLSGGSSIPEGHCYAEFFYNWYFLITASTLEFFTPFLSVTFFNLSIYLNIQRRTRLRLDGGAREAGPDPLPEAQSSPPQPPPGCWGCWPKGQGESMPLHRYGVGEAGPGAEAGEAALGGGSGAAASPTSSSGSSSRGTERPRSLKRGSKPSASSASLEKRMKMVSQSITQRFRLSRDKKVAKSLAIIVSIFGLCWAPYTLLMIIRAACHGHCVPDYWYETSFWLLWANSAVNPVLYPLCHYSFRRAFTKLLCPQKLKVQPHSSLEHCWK
readoutType: Ki (µM)
Dear colleague, please return just the value in µM, with no unit written.

Find Ki (Histamine H3 receptor (Cavia porcellus, UniProt Q9JI35)) for the entry `O=C1CCc2ccc(OCCCCN3CCN(c4cccc(Cl)c4Cl)CC3)cc2N1`
0.224

###

system: Histamine H4 receptor (Homo sapiens)
Sequence (Q9H3N8 whole entry): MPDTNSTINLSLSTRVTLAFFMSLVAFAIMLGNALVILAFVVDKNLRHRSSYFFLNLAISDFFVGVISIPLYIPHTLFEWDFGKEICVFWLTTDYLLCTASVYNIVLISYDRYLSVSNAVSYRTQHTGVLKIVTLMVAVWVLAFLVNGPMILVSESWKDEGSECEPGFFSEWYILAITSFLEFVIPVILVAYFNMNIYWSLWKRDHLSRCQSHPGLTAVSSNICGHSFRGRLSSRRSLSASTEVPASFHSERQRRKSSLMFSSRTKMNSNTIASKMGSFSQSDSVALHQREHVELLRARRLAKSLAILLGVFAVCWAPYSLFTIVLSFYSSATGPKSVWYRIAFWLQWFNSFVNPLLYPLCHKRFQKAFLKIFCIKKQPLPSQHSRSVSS
pKi: −log10 of the molar value.
readoutType: pKi

pKi of `O=C1CCc2ccc(OCCCCN3CCN(c4cccc(Cl)c4Cl)CC3)cc2N1` on Histamine H4 receptor (Homo sapiens)?
< 5.00

###

system: Gamma-aminobutyric acid type B receptor subunit 1 (UniProt Q9Z0U4)
Sequence (Q9Z0U4 whole entry): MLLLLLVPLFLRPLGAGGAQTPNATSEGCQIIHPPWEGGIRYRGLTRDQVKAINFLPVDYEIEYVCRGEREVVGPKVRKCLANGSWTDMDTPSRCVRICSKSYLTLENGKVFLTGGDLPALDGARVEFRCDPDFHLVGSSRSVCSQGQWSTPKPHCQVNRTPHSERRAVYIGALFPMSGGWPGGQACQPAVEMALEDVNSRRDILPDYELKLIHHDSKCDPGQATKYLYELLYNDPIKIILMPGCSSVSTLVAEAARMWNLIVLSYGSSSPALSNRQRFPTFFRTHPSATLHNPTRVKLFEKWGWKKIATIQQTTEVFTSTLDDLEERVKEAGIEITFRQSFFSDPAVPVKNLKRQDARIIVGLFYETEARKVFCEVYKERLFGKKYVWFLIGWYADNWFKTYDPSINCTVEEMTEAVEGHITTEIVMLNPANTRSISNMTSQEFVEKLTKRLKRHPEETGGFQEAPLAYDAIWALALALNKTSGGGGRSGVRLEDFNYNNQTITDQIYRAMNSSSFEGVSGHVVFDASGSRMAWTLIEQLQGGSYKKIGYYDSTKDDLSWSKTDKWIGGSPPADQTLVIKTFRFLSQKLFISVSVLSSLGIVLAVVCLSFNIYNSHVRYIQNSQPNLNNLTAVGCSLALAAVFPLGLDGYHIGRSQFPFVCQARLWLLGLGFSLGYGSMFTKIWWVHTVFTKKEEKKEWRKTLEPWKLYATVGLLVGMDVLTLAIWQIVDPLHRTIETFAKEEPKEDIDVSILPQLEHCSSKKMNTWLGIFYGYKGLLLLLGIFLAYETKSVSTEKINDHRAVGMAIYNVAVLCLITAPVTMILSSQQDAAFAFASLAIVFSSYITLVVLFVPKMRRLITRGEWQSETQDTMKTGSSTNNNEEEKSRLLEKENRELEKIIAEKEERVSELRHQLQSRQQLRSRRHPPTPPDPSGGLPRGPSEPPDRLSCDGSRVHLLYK
readoutType: Ki

Which value of Ki has been reported for `O=C1CCc2ccc(OCCCCN3CCN(c4cccc(Cl)c4Cl)CC3)cc2N1` in the records?
> 10 µM

###

system: Protein kinase C alpha type (Homo sapiens, UniProt P17252)
pKi: −log10 of the molar value.
readoutType: pKi

// lookup pKi for `O=C1CCc2ccc(OCCCCN3CCN(c4cccc(Cl)c4Cl)CC3)cc2N1`
< 5.00
